- TEST_SYSTEM: menin/MLL (terbium chelate-labeled menin, FITC-MBM1 peptide) (Homo sapiens, UniProt O00255, T541A)
- Construct: Menin (a.a 1-610-6xhis tag, 2.3 mg/mL in 20 mM Hepes)
- TEST_DESCRIPTION: Menin/MLL homogenous time-resolved fluorescence (HTRF) assay
- MEASUREMENT_CONDITIONS: 30 min incubation
QUANTITY_KIND: pIC50
On this scale, pIC50 is minus log10 of a concentration expressed in M (mol/L).

Some solved cases for reference:
# COMPOUND, VALUE
records = [
    ("CC(=O)N1CCC(C)(CN2CC[C@@H](Cc3cn(-c4ccc(F)cc4C(=O)N(C[C@H](C)O)C(C)C)c4cncc(C)c34)C2)CC1 [Compound 338]", 9.73),
    ("CC(=O)N1CCC(CN2CC[C@@H](Cc3cn(-c4ccc(F)cc4C(=O)N4[C@@H](C)CC[C@@H]4C)c4cncc(C)c34)C2)CC1 [Compound 316]", 10.26),
    ("Cc1cncc2c1c(C[C@@H]1CCN(C[C@@H]3CCCCN3)C1)cn2-c1ccc(F)cc1C(=O)N(C)C(C)C [Compound 148]", 10.07),
]

Now consider the entry below.
Given item Cc1cncc2c1c(C[C@H]1CCN(CC3(C)CCN(C(N)=O)CC3)C1)cn2-c1ccc(F)cc1C(=O)N(C)C(C)C [Compound 218] , the value recorded as its pIC50 is 10.03

---

The entries below come with measured IC50 values attached.
- TEST_SYSTEM: menin/MLL (terbium chelate-labeled menin, FITC-MBM1 peptide) (Homo sapiens, UniProt O00255, T541A)
- Construct: Menin (a.a 1-610-6xhis tag, 2.3 mg/mL in 20 mM Hepes)
- TEST_DESCRIPTION: Menin/MLL homogenous time-resolved fluorescence (HTRF) assay
- MEASUREMENT_CONDITIONS: 30 min incubation
// return numeric value only (unit: nM, not printed)

# COMPOUND, MEASURE_UNIT, VALUE
rows = [
    ("CC(=O)N1C[C@@H]2CN([C@H]3C[C@@H](CN4CC[C@H](Cc5cn(-c6ccc(F)cc6C(=O)N(C)C(C)C)c6cncc(C)c56)C4)C3)C[C@H]2C1 (single isomer, unassigned) [Compound 31]", "nM", 0.052),
]

The measured IC50 associated with Cc1cncc2c1c(CC1CN(CC3CCOCC3)C1)cn2-c1ccc(F)cc1C(=O)N(C)[C@H]1C[C@H](O)C1 [Compound 275] reads 0.945

Form: compound = Cc1cncc2c1c(C[C@@H]1CCN([C@@H](CO)C3CCCOC3)C1)cn2-c1ccc(F)cc1C(=O)N(C)C(C)C (single isomer, unassigned) [Compound 198a] ; IC50 = 0.034

Sure, the documented IC50 for CC(=O)N1CCCCC1C1(CN2CC(Cc3cn(-c4ccc(F)cc4C(=O)N(C)C(C)C)c4cncc(C)c34)C2)CC1 (stereo not shown) [Compound 297] is 0.477

Form: compound = CC(=O)N1CCC(CN2CC[C@@H](Cc3cn(-c4ccc(F)cc4C(=O)N4CCC[C@H]4CO)c4cncc(C)c34)C2)CC1 [Compound 323] ; IC50 = 0.08

The compound listed as CC[C@H]([C@H]1C[C@H](N2C[C@H]3CN(C(C)=O)C[C@@H]3C2)C1)N1CC[C@H](Cc2cn(-c3ccc(F)cc3C(=O)N(C)C(C)C)c3cncc(Cl)c23)C1 (single isomer, unassigned) [Compound 27b] has a reported IC50 of 0.038

Reported IC50 for CC(=O)N1CCC(C)C(N2CC[C@@H](Cc3cn(-c4ccc(F)cc4C(=O)N(C)C(C)C)c4cncc(C)c34)C2)C1 (stereo partly shown) [Compound 242] was 0.811

---

- TEST_SYSTEM: menin/MLL (terbium chelate-labeled menin, FITC-MBM1 peptide) (Homo sapiens, UniProt O00255, T541A)
- Construct: Menin (a.a 1-610-6xhis tag, 2.3 mg/mL in 20 mM Hepes)
- Sequence (O00255 with tags, fused parts or gaps T541A): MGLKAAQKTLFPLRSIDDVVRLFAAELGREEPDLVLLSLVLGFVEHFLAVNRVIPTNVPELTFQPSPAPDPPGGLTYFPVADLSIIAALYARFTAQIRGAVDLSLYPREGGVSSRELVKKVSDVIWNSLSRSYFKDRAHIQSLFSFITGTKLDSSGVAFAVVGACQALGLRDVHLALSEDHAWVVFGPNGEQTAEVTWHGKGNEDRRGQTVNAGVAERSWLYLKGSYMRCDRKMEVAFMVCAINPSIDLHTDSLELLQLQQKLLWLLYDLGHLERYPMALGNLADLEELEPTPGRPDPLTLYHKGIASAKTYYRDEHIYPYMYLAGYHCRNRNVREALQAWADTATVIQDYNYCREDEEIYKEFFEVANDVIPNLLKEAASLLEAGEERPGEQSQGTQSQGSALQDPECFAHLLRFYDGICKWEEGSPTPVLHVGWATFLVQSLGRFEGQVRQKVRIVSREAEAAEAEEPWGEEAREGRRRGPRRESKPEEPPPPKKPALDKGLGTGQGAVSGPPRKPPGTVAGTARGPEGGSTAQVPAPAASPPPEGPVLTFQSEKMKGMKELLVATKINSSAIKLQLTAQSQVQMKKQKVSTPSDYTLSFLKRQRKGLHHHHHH
- TEST_DESCRIPTION: Menin/MLL homogenous time-resolved fluorescence (HTRF) assay
- MEASUREMENT_CONDITIONS: 30 min incubation
QUANTITY_KIND: pIC50
The scale used: pIC50 is minus the common logarithm of the concentration in molar units.

Here's what some known entries look like.
# COMPOUND, pIC50
measured = [
    ("CC(=O)N1CC2CC(CN3CC[C@@H](Cc4cn(-c5ccc(F)cc5C(=O)N(CC(C)O)C(C)C)c5cncc(C)c45)C3)CC(C2)C1 (stereo partly drawn)", 9.23),
    ("CC(=O)N1CCC(CCN2CC[C@@H](Cc3cn(-c4ccc(F)cc4C(=O)N(C)C(C)C)c4cncc(C)c34)C2)CC1", 9.26),
]

The recorded pIC50 for CC(=O)N1C[C@@H]2CN([C@H]3C[C@@H](C(C(C)C)N4CC(Cc5cn(-c6ccc(F)cc6C(=O)N(C)C(C)C)c6cncc(Cl)c56)C4)C3)C[C@H]2C1 (single isomer, unassigned) [Compound 40a] is 9.08

---

- Test system: KO-52 cells
- TEST_DESCRIPTION: Proliferation assay (spheroid confluence, 8 days), KO-52 control cell line
- Assay type: cell-based, human
- MEASUREMENT_CONDITIONS: Homo sapiens, read-out: spheroid assay_KO-52 IC50
QUANTITY_KIND: pIC50
The meaning of pIC50 here: minus log10 of the concentration in molar units.

Reference set (2 entries):
# COMPOUND, VALUE
records = [
    ("CCC([C@H]1C[C@@H](N2CCN(C(C)=O)CC2)C1)N1CC[C@@H](Cc2cn(-c3ccc(F)cc3C(=O)N(C)C(C)C)c3cncc(C)c23)C1 (mixture of isomers)", 5.07),
    ("Cc1cncc2c1c(C[C@@H]1CCN(C[C@H]3CCOC3)C1)cn2-c1ccc(F)cc1C(=O)N(C)C(C)C (single isomer, unassigned) [Compound 190a]", 5.00),
]

Param item: CC(=O)N1C[C@@H]2CN([C@H]3C[C@@H](C(C(C)C)N4CC[C@H](Cc5cn(-c6ccc(F)cc6C(=O)N(C)C(C)C)c6cncc(C)c56)C4)C3)C[C@H]2C1 (mixture of isomers) ; param system: KO-52 cells; output pIC50: 5.70

Tested system KO-52 cells; pIC50 recorded for CN=S(=O)(c1cc(F)ccc1-n1cc(CC2CCN(CC3CCOCC3)C2)c2c(C)cncc21)C(C)C (stereo not shown) was 5.24

The compound COCC(=O)N1CCC(CN2CCC(Cc3cn(-c4ccc(F)cc4C(=O)N(C)C(C)C)c4cncc(C)c34)C2)CC1 (single isomer, unassigned) , tested on KO-52 cells, showed pIC50 of 5.68

Given the compound CC(=O)N1CCC(CN2CC[C@@H](Cc3cn(-c4ccc(F)cc4C(=O)N(CC(C)O)C(C)C)c4cncc(C)c34)C2)CC1 (stereo partly shown) and test system KO-52 cells, the measured pIC50 is 5.16

# CC(=O)N1CCC(CN2CCC(Cc3cn(-c4ccc(F)cc4C(=O)N(C)C(C)C)c4cncc(C)c34)C2C)CC1 (stereo not shown) with KO-52 cells: pIC50 is 5.24

Per the reported KO-52 cells data, `CC(=O)N1CCC(CN2CC(Cc3cn(-c4ccc(F)cc4C(=O)N(C)C(C)C)c4cncc(C)c34)C2)CC1` has pIC50 of 5.23

// pIC50 (KO-52 cells) for `CC(=O)N1CCC(CN2CCC(Cc3cn(-c4ccc(F)cc4C(=O)N(C)C(C)C)c4cncc(C)c34)CC2)CC1` = 4.98

Given the compound `Cc1cncc2c1c(C[C@@H]1CCN(CC3CCN(C(N)=O)CC3)C1)cn2-c1ccc(F)cc1C(=O)N(C)C(C)C` and test system KO-52 cells, the measured pIC50 is 4.84

Tested system KO-52 cells; pIC50 recorded for CC(=O)N1CCC(CN2CC[C@@H](Cc3cn(-c4ccc(F)cc4C(=O)N4CCC5CC54)c4cncc(C)c34)C2)CC1 (single isomer, unassigned) [Compound 311a] was 5.11

Summary line: COCC(=O)N1CCC(C(C)N2CCC(Cc3cn(-c4ccc(F)cc4C(=O)N(C)C(C)C)c4cncc(C)c34)C2)CC1 (single isomer, unassigned) [Compound 117a] , KO-52 cells, reported pIC50 = 5.80

Field pIC50 (KO-52 cells), entry Cc1cncc2c1c(CC1CCN(CC3CCN(C(=O)[C@H](C)O)CC3)C1)cn2-c1ccc(F)cc1C(=O)N(C)C(C)C (single isomer, unassigned) : 5.89

Test item CN=S(=O)(c1cc(F)ccc1-n1cc(CC2CCN(CC3CCN(C(C)=O)CC3)C2)c2c(C)cncc21)C(C)C (stereo not shown) ; KO-52 cells; reported pIC50 was 5.10

Entry CC(=O)N1CC2CC(C1)C2N1CC[C@@H](Cc2cn(-c3ccc(F)cc3C(=O)N(C)C(C)C)c3cncc(C)c23)C1 (stereo partly shown) , KO-52 cells data, pIC50 value: 4.89

COCCN(C)CCC[C@@H](C(C)C)N1CC[C@H](Cc2cn(-c3ccc(F)cc3C(=O)N(C)C(C)C)c3cncc(Cl)c23)C1 (single isomer, unassigned) on KO-52 cells gives pIC50 = 6.30

GET /values?item= COCC(=O)N1CCC(CN2CC[C@@H](Cc3cn(-c4ccc(F)cc4C(=O)N(C)C(C)C)c4cncc(C)c34)C2)CC1 (single isomer, unassigned) &system= KO-52 cells returns pIC50: 5.85
